assay-text: In vivo bioconcentration experiment with a mixture of anionic surfactants, flow-through aquaria, 10 °C, pH 7.8
Design: species or system rainbow trout
test-context: rainbow trout, whole fish homogenate, other: waterborne exposure in flow-through aquaria, 26 μg L^–1, pH 7.8, from measured concentrations in water; Bayesian estimate; 95% credible interval in brackets; read-out: Elimination rate constant kT (converted)
readout-type: k el (s⁻¹)
Enter your answer as a number in s⁻¹; do not include the unit.

[Q] Kindly indicate its recorded k el. Item: CCCCC(CC)COC(=O)CC(C(=O)OCC(CC)CCCC)S(=O)(=O)O (stereo not shown) [DOSS, bis(2-ethylhexyl)sulfosuccinate]
[A] 1.75e-05
